Hello, the source for this data is ChEMBL document CHEMBL1146914, in case you need it.

Tested System: Thymidine kinase, cytosolic (Homo sapiens)
Test Details: Activity against human TK1 assessed as thymidine phosphorylation relative to thymidine
Type: functional
Set-up: concentration or dose not given beside the values
Here, each record is paired with measured Activity data.
Answer format: numeric, % implied, no suffix.

>  <Molecule>
CC(=O)O[C@@]12CO[C@@H]1C[C@H](O)C1(C)C(=O)[C@H](OC(=O)NCCOCCn3c(=O)c(C)cn([C@H]4C[C@H](O)[C@@H](CO)O4)c3=O)C3=C(C)[C@@H](OC(=O)[C@H](O)[C@@H](NC(=O)c4ccccc4)c4ccccc4)C[C@@](O)([C@@H](OC(=O)c4ccccc4)[C@@H]12)C3(C)C (stereo partly drawn)

>  <Activity [%]>
48

$$$$
>  <Molecule>
CC(=O)O[C@H]1C(=O)C2(C)[C@@H](OC(=O)NCCCn3c(=O)c(C)cn([C@H]4C[C@H](O)[C@@H](CO)O4)c3=O)C[C@H]3OC[C@@]3(OC(C)=O)[C@H]2[C@H](OC(=O)c2ccccc2)[C@]2(O)C[C@H](OC(=O)[C@H](O)[C@@H](NC(=O)c3ccccc3)c3ccccc3)C(C)=C1C2(C)C (stereo partly drawn)

>  <Activity [%]>
35

$$$$

Next item in the queue.
Output measured Activity for this item: CC(=O)O[C@H]1C(=O)C2(C)[C@@H](OC(=O)NCCOCCn3c(=O)c(C)cn([C@H]4C[C@H](O)[C@@H](CO)O4)c3=O)C[C@H]3OC[C@@]3(OC(C)=O)[C@H]2[C@H](OC(=O)c2ccccc2)[C@]2(O)C[C@H](OC(=O)[C@H](O)[C@@H](NC(=O)c3ccccc3)c3ccccc3)C(C)=C1C2(C)C (stereo partly drawn)
16
